# targetDesc: human JAK2 (a.a. 828-1132) (Homo sapiens, UniProt O60674)
# Construct: JAK2 (a.a. 828-1132); His tag (N); made in house; host or cells: insect cells (baculovirus)
# Sequence (O60674 828-1132): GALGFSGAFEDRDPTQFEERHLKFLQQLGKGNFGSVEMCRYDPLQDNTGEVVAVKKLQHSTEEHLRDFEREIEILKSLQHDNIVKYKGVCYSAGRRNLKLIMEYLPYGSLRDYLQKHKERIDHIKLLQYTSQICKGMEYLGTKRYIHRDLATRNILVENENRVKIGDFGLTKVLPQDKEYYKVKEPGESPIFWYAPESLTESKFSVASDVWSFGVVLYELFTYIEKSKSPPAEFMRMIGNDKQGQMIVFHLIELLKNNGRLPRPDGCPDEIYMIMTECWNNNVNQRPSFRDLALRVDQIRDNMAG
# experimentalDetails: In vitro JAK kinase assay (HTRF, phosphorylation of a biotinylated peptide), JAK2
# Type: biochemical
# conditionSet: Table B1
Structures can show the parent of a compound that is named as a salt.
recordedMetric: IC50

1. O=C(Nc1ccc2cc1CCc1cncc(c1)Nc1ncc(Cl)c(n1)N2)N[C@H]1CCNC1 [Example B25, trihydrochloride] = 36 nM
2. N#Cc1ccc(C(=O)N2CC[C@H](NC(=O)Nc3ccc4cc3CCc3cccc(c3)Nc3ncc(Cl)c(n3)N4)C2)cc1 [Example B235, trifluoroacetate] = 21 nM
3. NS(=O)(=O)N1CC[C@@H](NC(=O)Nc2ccc3cc2CCc2cccc(c2)Nc2ncc(Cl)c(n2)N3)C1 [Example B179, trifluoroacetate] = 0.84 nM
4. O=C(Nc1ccc2cc1CCc1cccc(c1)Nc1ncc(Cl)c(n1)N2)C1CCCCC1 [Example B63, trifluoroacetate] = 12 nM
5. CN1CCOc2cc(S(=O)(=O)Nc3ccc4cc3CCc3cccc(c3)Nc3ncc(Cl)c(n3)N4)ccc21 [Example B165, trifluoroacetate] = 10 nM
6. COc1ccc(NC(=O)Nc2ccc3cc2CCc2cccc(c2)Nc2ncc(Cl)c(n2)N3)cc1 [Example B101, trifluoroacetate] = 10 nM
7. N#Cc1cccc(C(=O)Nc2ccc3cc2CCc2cccc(c2)Nc2ncc(Cl)c(n2)N3)c1 [Example B65, trifluoroacetate] = 1.8 nM
8. O=C(Nc1ccc2cc1CCc1cccc(c1)Nc1ncc(Cl)c(n1)N2)c1cccnc1Cl [Example B70, bis(trifluoroacetate)] = 0.64 nM
9. O=C(Nc1ccc2cc1CCc1cccc(c1)Nc1ncc(Cl)c(n1)N2)c1ccccc1Cl [Example B41, hydrochloride] = 0.63 nM
10. COc1ccccc1N1CCN(C(=O)Nc2ccc3cc2CCc2cncc(c2)Nc2ncc(Cl)c(n2)N3)CC1 [Example B298, tris(trifluoroacetate)] = 341 nM
11. CNC(=O)N1CC[C@H](NC(=O)Nc2ccc3cc2CCc2cccc(c2)Nc2ncc(Cl)c(n2)N3)C1 [Example B169] = 12 nM
12. COC(=O)c1cc2cc(c1)Nc1nc(ncc1Cl)Nc1cccc(c1)CC2 [Example B5, trifluoroacetate] = 44 nM
13. Fc1ccc(CN2CCN(Cc3cc4cc(c3)Nc3nc(ncc3Cl)Nc3cccc(c3)CC4)CC2)cc1 [Example B192, tris(trifluoroacetate)] = 23 nM
